- Test system: AncSZ
- assay_name: phosphorylation enrichment, bacterial display (enrichment ratio); higher = better substrate or ligand; peptides without Tyr show the background;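 note: 11-residue human phosphosite peptides and single-mutation variants displayed on the E. coli surface, counted by deep sequencing, each peptide's frequency after selection divided by its frequency in the unselected input library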;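 note: frequency after pTyr selection over input frequency; kinase dosed for 20-30% of maximal phosphorylation in three min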
Please mark MET if the recorded phosphorylation enrichment is equal to or greater than 0.9, and NOT MET if it falls below.

>  <ordered_residues>
ETLLFYGFRRS [POR_Y564_C566Y_YF]

>  <class_assignment>
NOT MET

$$$$
>  <ordered_residues>
QFNIQYSSSAA [ERBB2IP_Y981_YF]

>  <class_assignment>
MET

$$$$
>  <ordered_residues>
IEEGTYGVVYR [CDK11B_Y449]

>  <class_assignment>
MET

$$$$
>  <ordered_residues>
TRVMEYISCLD [CLTCL1_Y1043_R1046C]

>  <class_assignment>
MET

$$$$
>  <ordered_residues>
DLRTGYSVPYG [TGM1_Y370_Y365D]

>  <class_assignment>
NOT MET

$$$$
>  <ordered_residues>
AQADIYKADFQ [IKBKG_Y308]

>  <class_assignment>
NOT MET

$$$$
>  <ordered_residues>
MNLLGYRHVRS [CHST4_Y359]

>  <class_assignment>
NOT MET

$$$$
>  <ordered_residues>
VLDSHYPEDEV [C1QBP_Y188_C186S]

>  <class_assignment>
MET

$$$$
>  <ordered_residues>
PMFHSYVSLPF [PLXNA2_Y293_K289M]

>  <class_assignment>
MET

$$$$
>  <ordered_residues>
LIPIKYKAMKK [MYD88_Y257]

>  <class_assignment>
NOT MET

$$$$
>  <ordered_residues>
ADLTEYLSTHY [UQCRC1_Y219]

>  <class_assignment>
MET

$$$$
>  <ordered_residues>
ARMTNYGLPRY [TSPAN12_Y138]

>  <class_assignment>
NOT MET

$$$$
>  <ordered_residues>
DVSVVYSEVKT [FCRL4_Y493]

>  <class_assignment>
MET

$$$$
>  <ordered_residues>
SVVVPYEPREV [TP53_Y220_P223R]

>  <class_assignment>
NOT MET

$$$$
>  <ordered_residues>
NTQRPHFKGGG [TYROBP_Y111_Y111H_YF]

>  <class_assignment>
NOT MET

$$$$

---

- System: c-Src
- assay_name: phosphorylation enrichment, bacterial display (enrichment ratio); higher = better substrate or ligand; peptides without Tyr show the background

>  <ordered_residues>
DENWFYTRPAS [RPS19_Y54_A57P]

>  <phosphorylation enrichment>
0.489

$$$$
>  <ordered_residues>
SHLEDYPFNAE [AKR1B10_Y310]

>  <phosphorylation enrichment>
0.396

$$$$
>  <ordered_residues>
FSAGTYPRMEE [SYCN_Y108_L111M]

>  <phosphorylation enrichment>
0.407

$$$$
>  <ordered_residues>
KPGVNYYFRVS

>  <phosphorylation enrichment>
0.385

$$$$
>  <ordered_residues>
DHTVNYVLKCR [PLEKHG4_Y1068_R1064H]

>  <phosphorylation enrichment>
0.409

$$$$
>  <ordered_residues>
ESMQSYDLDFP [UNC13B_Y243_D238E_YF]

>  <phosphorylation enrichment>
0.49

$$$$
>  <ordered_residues>
VEFAKYGSLRG [RET_Y809_YF]

>  <phosphorylation enrichment>
0.437

$$$$
>  <ordered_residues>
ILKPDYQPLAV [HYDIN_Y1072_I1077V]

>  <phosphorylation enrichment>
0.418

$$$$
>  <ordered_residues>
FEEDSYVERSQ [RET_Y905_K907E_YF]

>  <phosphorylation enrichment>
0.526

$$$$
>  <ordered_residues>
ARGMEYLASQK [FGFR2_Y616]

>  <phosphorylation enrichment>
0.398

$$$$
>  <ordered_residues>
QKINKYLTVPA [SLC9A1_Y683_N682K]

>  <phosphorylation enrichment>
0.762

$$$$
>  <ordered_residues>
RLLVVFPWTQR [HBB_Y36_Y36F]

>  <phosphorylation enrichment>
0.584

$$$$
>  <ordered_residues>
KDHRDYKFQPR [SOX9_Y172_P170R_YF]

>  <phosphorylation enrichment>
0.423

$$$$

Source listed as the supplement of paper PMC10065799.
